Entries and their measured change of melting temperature, mutant - wild type (higher = more stable) follow.
B1: Cytosolic beta-glucosidase, O61594 (parent)
chain: MKLLVVLSLVAVACNASIVRQQRRFPDDFLFGTATASYQIEGAWDEDGKGENIWDYMVHNTPEVIRDLSNGDIAADSYHNYKRDVEMMRELGLDAYRFSLSWARILPTGMANEVNPAGIAFYNNYIDEMLKYNITPLITLYHWDLPQKLQELGGFANPLISDWFEDYARVVFENFGDRVKMFITFNEPREICFEGYGSATKAPILNATAMGAYLCAKNLVTAHAKAYYLYDREFRPVQGGQCGITISVNWFGPATPTPEDEMAAELRRQGEWGIYAHPIFSAEGGFPKELSDKIAEKSAQQGYPWSRLPEFTEEEKAFVRGTSDLIGVNHYTAFLVSATERKGPYPVPSLLDDVDTGSWADDSWLKSASAWLTLAPNSIHTALTHLNNLYNKPVFYITENGWSTDESRENSLIDDDRIQYYRASMESLLNCLDDGINLKGYMAWSLMDNFEWMEGYIERFGLYEVDFSDPARTRTPRKAAFVYKHIIKHRVVDYEYEPETMVMTIDEGH

# Variants of: B1
# condition-details: Spodoptera frugiperda; pH 6; Thermal; CD; Potassium phosphate 10mM; transition: 2; structure 5CG0; whole UniProt chain shown
The figure you give is taken to be in °C; do not add the unit.

>>> observed_result("L100A")
0.4
>>> observed_result("Y390A")
-3
>>> observed_result("F251A")
-3.8
>>> observed_result("A263F")
-6.4
>>> observed_result("N391A")
-1.6

Briefly, change of melting temperature, mutant - wild type (higher = more stable) measured for L389A : 0.4
